Data provenance: the Bradley open melting point set (2014)

quantity_measured: melting point (°C)

compound: COc1cccc(P(c2cccc(OC)c2)c2cccc(OC)c2)c1
melting point, °C: 114
--
compound: CC(C)CC(=O)O
melting point, °C: -30
--
compound: c1ccc(C/C(=N\Nc2ccccc2)c2ccc3ccccc3c2)cc1
melting point, °C: 166
--
compound: Clc1ccc2c(Cl)ccnc2c1
melting point, °C: 85
--
compound: CC(C)(C)NC(=O)[C@@H]1CC2CCCCC2CN1C[C@@H](O)[C@H](Cc1ccccc1)NC(=O)[C@H](CC(N)=O)NC(=O)c1ccc2ccccc2n1 (stereo not given in full)
melting point, °C: 350

A: CC(C)CCC[C@@H](C)[C@H]1CC[C@H]2[C@@H]3CCC4=CC(=O)CC[C@]4(C)[C@H]3CC[C@]12C
B: Nc1ncnc2c1ncn2[C@@H]1O[C@H](CO)[C@@H](O)[C@H]1O [adenosine]
Incoming: Which of the two items, A and B , has the greater recorded melting point? Answer by quoting the chosen item's label.
Outgoing: B

1: CC(=O)CCc1oc2ccc(NC(C)=O)cc2c1-c1ccc(C)o1
2: CCCCCCCCCCCCCCC(=O)O
Incoming: Which of the two items, 1 and 2 , has the greater recorded melting point? Answer by quoting the chosen item's label.
Outgoing: 1
(1: 132 °C, 2: 53 °C)

P: c1ccc(Cc2ccccc2)cc1
Q: CCOC(C)(C)C
R: COC(=O)c1ccccc1O [methyl_salicylate]
S: O=C(CCCl)c1ccc(F)cc1
Incoming: Put the items in sequence by melting point, from largest down. Reply with the item labels sorted in the order that was asked for.
Outgoing: P, S, R, Q
